- assay.system: human factor Xa (Homo sapiens, UniProt P00742)
- Sequence (P00742 235-488 limits assumed): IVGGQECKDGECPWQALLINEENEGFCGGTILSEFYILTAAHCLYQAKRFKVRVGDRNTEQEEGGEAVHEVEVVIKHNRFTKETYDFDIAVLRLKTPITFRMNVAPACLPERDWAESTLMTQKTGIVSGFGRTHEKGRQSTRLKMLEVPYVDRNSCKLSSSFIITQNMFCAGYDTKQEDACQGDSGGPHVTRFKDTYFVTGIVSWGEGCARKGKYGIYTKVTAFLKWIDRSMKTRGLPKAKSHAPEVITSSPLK
- Sequence (P00742 41-179 partner limits assumed): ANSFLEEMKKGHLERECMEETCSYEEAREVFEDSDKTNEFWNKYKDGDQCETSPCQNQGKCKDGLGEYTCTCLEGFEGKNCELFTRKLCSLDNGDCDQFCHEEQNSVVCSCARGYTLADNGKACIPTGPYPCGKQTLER
pIC50: −log10 of the molar value.
property.label: pIC50

# annotated cases, reported pIC50 shown
• O=C(Cn1c(=O)c(NS(=O)(=O)Cc2ccccc2)cc2ccccc21)NCCc1cnc[nH]1 [Example 13] = < 4.52
• O=C(Cn1c(=O)c(NS(=O)(=O)Cc2ccccc2)cc2ccccc21)NCCCn1ccnc1 [Example 12] = < 4.52
• CN(C)CCCCCCNC(=O)Cn1c(=O)c(NS(=O)(=O)Cc2ccccc2)cc2ccccc21 [Example 9] = < 4.52
• N=C(N)N1CCC(CNC(=O)Cn2c(CCc3ccccc3)ccc(NS(=O)(=O)Cc3ccccc3)c2=O)CC1 [Example 21] = 4.77
• Nc1ccc(CNC(=O)Cn2c(=O)c(NS(=O)(=O)Cc3ccccc3)cc3ccccc32)cc1 [Example 16] = < 4.52

Requested read-out pIC50, target or system human factor Xa (Homo sapiens, UniProt P00742), entry N=C(N)c1ccc(CNC(=O)Cn2c(=O)c(NCCc3ccccc3)cc3ccccc32)cc1 [Example 3]
< 4.52

Requested read-out pIC50, target or system human factor Xa (Homo sapiens, UniProt P00742), entry Cc1ccc(NS(=O)(=O)Cc2ccccc2)c(=O)n1CC(=O)NCc1ccc(C(=N)N)cc1 [Example 20]
5.24

Requested read-out pIC50, target or system human factor Xa (Homo sapiens, UniProt P00742), entry N=C(N)c1ccc(CNC(=O)Cn2c(=O)c(NS(=O)(=O)Cc3ccccc3)cc3ccccc32)cc1 [Example 2]
5.11

----------
- assay.system: human factor Xa (Homo sapiens, UniProt P00742)
- Construct: leads from XII to XIIa to XIa to IXa and to the conversion of X to Xa; purchased Enzyme Research Laboratories, South Bend Ind
- protocol.text: Xa Assay
- Format: biochemical
- study.conditions: S-2765 substrate, 60 min, room temperature, pH 8.0
pIC50: −log10 of the molar value.
Listing of recorded pIC50 by entry.

• NCc1ccc(CNC(=O)Cn2c(=O)c(NS(=O)(=O)Cc3ccccc3)cc3ccccc32)cc1 = < 4.52

Dear colleague, I am looking for the recorded pIC50 of the following compound: O=C(Cn1c(=O)c(NS(=O)(=O)Cc2ccccc2)cc2ccccc21)NCCc1cccnc1
< 4.52

Dear colleague, I am looking for the recorded pIC50 of the following compound: N=C(N)NCCC[C@H](NC(=O)Cn1c(CCc2ccccc2)ccc(NS(=O)(=O)Cc2ccccc2)c1=O)C(=O)c1nccs1
7.00

----------
- assay.system: recombinant soluble tissue factor and recombinant human factor VIIa (TF-VIIa) (Homo sapiens)
- Sequence (P08709 213-466 limits assumed): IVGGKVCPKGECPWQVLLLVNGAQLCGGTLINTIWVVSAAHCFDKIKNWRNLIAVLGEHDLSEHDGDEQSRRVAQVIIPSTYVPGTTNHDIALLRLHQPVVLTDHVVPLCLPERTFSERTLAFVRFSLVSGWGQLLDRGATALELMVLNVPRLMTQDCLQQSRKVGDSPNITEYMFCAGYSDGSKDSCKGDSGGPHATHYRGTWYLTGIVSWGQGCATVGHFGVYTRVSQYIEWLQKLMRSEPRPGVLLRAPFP
- Sequence (P08709 61-212 partner limits assumed): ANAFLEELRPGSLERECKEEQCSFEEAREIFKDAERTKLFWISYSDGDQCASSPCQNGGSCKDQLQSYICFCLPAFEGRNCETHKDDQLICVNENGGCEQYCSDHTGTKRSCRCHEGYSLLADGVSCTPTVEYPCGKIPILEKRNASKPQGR
- Sequence (P13726 33-251 partner limits assumed): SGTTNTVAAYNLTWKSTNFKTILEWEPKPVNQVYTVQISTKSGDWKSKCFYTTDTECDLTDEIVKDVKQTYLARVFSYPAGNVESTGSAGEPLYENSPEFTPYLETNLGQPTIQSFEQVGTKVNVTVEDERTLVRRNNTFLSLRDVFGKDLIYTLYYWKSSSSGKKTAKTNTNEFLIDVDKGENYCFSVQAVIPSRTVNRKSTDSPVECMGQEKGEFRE
- protocol.text: TF-VIIa Assay
- study.conditions: chromogenic substrate, 60 min, room temperature, pH 8.0
Listing of recorded IC50 by entry.

# annotated cases, reported IC50 shown
- CN(C)CCCCCCNC(=O)Cn1c(=O)c(NS(=O)(=O)Cc2ccccc2)cc2ccccc21 [Example 9]: > 30 µM
- N=C(N)NCCC[C@H](NC(=O)Cn1c(CCc2ccccc2)ccc(NS(=O)(=O)Cc2ccccc2)c1=O)C(=O)c1nccs1 [Example 17]: 1.1 µM
- Nc1ccc(CCNC(=O)Cn2c(=O)c(NS(=O)(=O)Cc3ccccc3)cc3ccccc32)cc1 [Example 6]: > 30 µM
- N=C(N)c1ccc(CNC(=O)Cn2c(CCc3ccccc3)ccc(NS(=O)(=O)Cc3ccccc3)c2=O)cc1 [Example 19]: 18 µM
- NCCCCCNC(=O)Cn1c(=O)c(NS(=O)(=O)Cc2ccccc2)cc2ccccc21 [Example 8]: > 30 µM

Dear colleague, I am looking for the recorded IC50 of the following compound: Cc1ccc(NS(=O)(=O)Cc2ccccc2)c(=O)n1CC(=O)N[C@@H](CCCNC(=N)N)C(=O)c1nccs1 [Example 18]
0.8 µM

Dear colleague, I am looking for the recorded IC50 of the following compound: O=C(Cn1c(=O)c(NS(=O)(=O)Cc2ccccc2)cc2ccccc21)NCCCn1ccnc1 [Example 12]
> 30 µM

Dear colleague, I am looking for the recorded IC50 of the following compound: N=C(N)c1ccc(CNC(=O)Cn2c(=O)c(NS(=O)(=O)c3ccccc3)cc3ccccc32)cc1 [Example 4]
> 30 µM

Dear colleague, I am looking for the recorded IC50 of the following compound: Cc1ccc(NS(=O)(=O)Cc2ccccc2)c(=O)n1CC(=O)NCC1CCN(C(=N)N)CC1 [Example 22]
> 30 µM

Dear colleague, I am looking for the recorded IC50 of the following compound: N=C(N)c1ccc(CNC(=O)Cn2c(=O)c(NCCc3ccccc3)cc3ccccc32)cc1 [Example 3]
26.1 µM
